# Tested on: MCF7
# assay overview: Antiproliferative activity against human MCF7 cells assessed as growth inhibition at 100 ug/ml after 72 hrs
# Assay type: functional
# condition set: MCF7, 72 h
metric: inhibition at 100 µg/mL (%)
Please state the figure in %; there is no need to write the unit.

Past entries and their recorded results:
- molecule: "COC(=O)c1ccc(OP(=O)(Oc2ccc(C(=O)OC)cc2)[C@@H](CC(C)C)NC(=O)OCc2ccccc2)cc1"
  readout unit: "%"
  inhibition at 100 µg/mL: 8
- molecule: "CCC(NC(=O)OCc1ccccc1)P(=O)(Oc1ccc(C(=O)OC)cc1)Oc1ccc(C(=O)OC)cc1 (centres undefined)"
  readout unit: "%"
  inhibition at 100 µg/mL: 49
- molecule: "CC(C)[C@@H](NC(=O)OCc1ccccc1)P(=O)(Oc1ccc(S(C)(=O)=O)cc1)Oc1ccc(S(C)(=O)=O)cc1"
  readout unit: "%"
  inhibition at 100 µg/mL: 19

Now turn to the next molecule.
Kindly note the recorded inhibition at 100 µg/mL for `CC(C)(C)C(=O)Oc1ccc(S(=O)(=O)Nc2ccccc2C(=O)NCC(=O)O)cc1` , which is 61
